- System: SUP-M2 (T-Cell Non-Hodgkin's Lymphoma)
- testMethodNotes: combination Emax (second highest fraction inhibited in the dose matrix, 72 h); higher = more inhibition; extreme values may be limits of the assay
Recorded combination Emax, one value per entry.
Give the figure by itself; no unit, no explanation.

# input Recorded combination Emax of CC(=O)c1c(C)c2cnc(Nc3ccc(N4CCNCC4)cn3)nc2n(C2CCCC2)c1=O [Palbociclib] + Cc1c2c(nn1C)CSCc1cc(n(C)n1)CSc1cc(c3ccccc3c1)OCCCc1c(C(=O)O)n(C)c3c-2c(Cl)ccc13 [AZD5991] (first compound max 10 µM, 7x7, partner max 1 µM) , please.
# output 1

# input Recorded combination Emax of C[C@@H](c1ccc2nccn2c1)n1nnc2ncc(-c3cnn(C)c3)nc21 [Savolitinib] + CC1(C)CCC(CN2CCN(c3ccc(C(=O)NS(=O)(=O)c4ccc(NCC5CCOCC5)c([N+](=O)[O-])c4)c(Oc4cnc5[nH]ccc5c4)c3)CC2)=C(c2ccc(Cl)cc2)C1 [Venetoclax] (first compound max 1 µM, 7x7, partner max 1 µM) , please.
# output 0.182

# input Recorded combination Emax of CC1(C)CCC(CN2CCN(c3ccc(C(=O)NS(=O)(=O)c4ccc(NCC5CCOCC5)c([N+](=O)[O-])c4)c(Oc4cnc5[nH]ccc5c4)c3)CC2)=C(c2ccc(Cl)cc2)C1 [Venetoclax] + C=CCn1c(=O)c2cnc(Nc3ccc(N4CCN(C)CC4)cc3)nc2n1-c1cccc(C(C)(C)O)n1 [AZD1775] (first compound max 1 µM, partner max 1 µM) , please.
# output 0.981
